Record form. Attribute: pIC50. Fill in for each entry.
# Assayed Target: Human Kv1.5 channels (Homo sapiens)
# Sequence (P22460 whole entry): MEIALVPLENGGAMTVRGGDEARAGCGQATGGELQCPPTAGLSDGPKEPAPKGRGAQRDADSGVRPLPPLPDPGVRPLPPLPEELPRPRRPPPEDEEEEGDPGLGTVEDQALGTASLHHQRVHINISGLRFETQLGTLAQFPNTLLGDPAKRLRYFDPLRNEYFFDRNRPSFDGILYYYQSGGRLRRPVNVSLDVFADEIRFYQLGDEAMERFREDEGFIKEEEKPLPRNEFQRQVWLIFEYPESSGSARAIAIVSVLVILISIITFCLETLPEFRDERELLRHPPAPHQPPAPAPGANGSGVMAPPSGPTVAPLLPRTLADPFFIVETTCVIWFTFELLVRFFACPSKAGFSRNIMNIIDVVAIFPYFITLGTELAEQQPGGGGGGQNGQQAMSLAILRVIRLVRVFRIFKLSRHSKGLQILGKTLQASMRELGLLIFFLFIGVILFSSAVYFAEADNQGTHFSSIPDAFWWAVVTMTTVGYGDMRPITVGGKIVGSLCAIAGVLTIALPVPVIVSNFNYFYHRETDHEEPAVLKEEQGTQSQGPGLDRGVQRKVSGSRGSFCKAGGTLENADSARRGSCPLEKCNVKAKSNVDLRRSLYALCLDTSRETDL
# Procedure Summary: Inhibition of human Kv1.5 current expressed in Xenopus oocytes (two microelectrode voltage clamp)
# Setup Conditions: human Kv1.5 expressed in Xenopus oocytes; voltage jumps to 0 mV and 40 mV, 500 ms; RT; pH 7.4; Hill equation
Answers are plain numbers, as −log10 of the molar value.

Compound | Assayed Target | pIC50
CC(C)CCNS(=O)(=O)c1cc(C(=O)NC2CCc3ccccc32)c(Cl)cc1Cl (centres unmarked) | Human Kv1.5 channels (Homo sapiens) | 5.55

Would you mind listing pIC50 for each of the following compounds?
1. O=C(NC1CCc2ccccc21)c1cc(S(=O)(=O)Nc2ccccc2)ccc1Cl (centres unmarked)
2. CCCCNS(=O)(=O)c1cc(C(=O)NC2CCc3ccccc32)ccc1Cl (centres unmarked)
3. Cc1cc(C)c(S(=O)(=O)NCCC(C)C)cc1C(=O)NC1CCc2ccccc21 (centres unmarked)
4. O=C(NC1CCc2ccccc21)c1cc(S(=O)(=O)NC2CCCCC2)c(F)cc1Cl (centres unmarked)
5. O=C(NC1CCc2ccccc21)c1cc(S(=O)(=O)NC2CCCCC2)c(Cl)cc1Cl (centres unmarked)

1: 5.20; 2: 5.11; 3: 5.06; 4: 5.21; 5: 5.41

State its pIC50 for this compound: COc1ccc2c(c1)C(NC(=O)c1ccc(Cl)c(S(=O)(=O)NCCC(C)C)c1)CC2 (centres unmarked)
5.06

* * *

# Assayed Target: Human Kv1.5 channels (Homo sapiens)
# Procedure Summary: Inhibition of human Kv1.5 current expressed in Xenopus oocytes (two microelectrode voltage clamp)
# Setup Conditions: human Kv1.5 expressed in Xenopus oocytes; voltage jumps to 0 mV and 40 mV, 500 ms; RT; pH 7.4; Hill equation
# Experimental: Human Kv1.5 channels were expressed in Xenopus oocytes. For this purpose, oocytes were first isolated from Xenopus laevis and were defolliculated. Kv1.5-coding RNA synthesized in vitro was then injected into these oocytes. After Kv1.5 protein expression for 1-7 days, Kv1.5 currents were measured on the oocytes by the two microelectrode voltage clamp technique. Here, the Kv1.5 channels were activated as a rule with voltage jumps to 0 mV and 40 mV, lasting for 500 ms. […]
Assay Metric: pIC50
Answers are plain numbers, as −log10 of the molar value.

In the examples that follow, each entry is paired with its recorded pIC50.
Molecule | Meas Value
CC(C)CNS(=O)(=O)c1cc(C(=O)NC2CCc3ccccc32)c(Cl)cc1Cl (stereo not shown) | 5.32
Cc1ccc(S(=O)(=O)NC2CCCCC2)cc1C(=O)NC1CCc2ccccc21 (stereo not shown) | 5.15
CN(C(=O)c1cc(S(=O)(=O)NC2CCCCC2)ccc1Cl)C1CCc2ccccc21 (stereo not shown) | 5.66

Would you mind listing pIC50 for each of the following molecules?
1. COc1cc2c(cc1OC)C(NC(=O)c1ccc(Cl)c(S(=O)(=O)NCCC(C)C)c1)CC2 (stereo not shown)
2. COc1ccc(NS(=O)(=O)c2cc(C(=O)NC3CCc4ccccc43)c(Cl)cc2F)cc1 (stereo not shown)
3. O=C(NC1CCc2ccccc21)c1cc(S(=O)(=O)NC2CCC2)c(Cl)cc1Cl (stereo not shown)
4. Cc1cc(S(=O)(=O)NCCC(C)C)cc(C(=O)NC2CCc3ccccc32)c1C (stereo not shown)
5. Cc1ccc(S(=O)(=O)NCCC(C)C)cc1C(=O)NC1CCc2ccccc21 (stereo not shown)

5.25
5.55
5.38
5.16
5.28
